Assay: inhibitors of TNFa-induced NFkB p65 translocation, primary screen, imaging, HUVEC, MLSMR starter and 10KST1 sets (AID 438);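 further: compound added about 3h40 before a 20 min TNFalpha stimulation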;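 on inhibition: signal is the nuclear over cytoplasmic p65 intensity ratio per well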
Conditions: HUVEC TNFa-induced p65 nuclear translocation; at 2 µM, stronger effect = higher value, 0% TNFa-plus-vehicle, 100% no-TNFa wells
Consider the following molecules; for each one, report its inhibition.
One number for each entry, in %.

QUERY: I am curious: what inhibition value has been reported for Cc1nnc(SCC(=O)Nc2sc3c(c2C#N)CCCC3)[nH]c1=O ?
RESULT: 2.8

QUERY: Lookup C=CCn1c(N)c(C(=O)Nc2ccccc2)c2nc3ccccc3nc21
RESULT: 9.1

QUERY: Lookup CC(C)=CCC(C)(C)CNC(=O)NC1CCCCC1
RESULT: -4.2

Batch: inhibition for all items listed.
1. CC1(C)CC(=O)C(C=NCCN2CCN(CCc3ccccc3)CC2)=C(O)C1
2. CN(C)C(=O)N1CCC(C(=O)NC2CCCCCCC2)CC1
3. CCOc1ccc(N2C(=O)CC(N3CC(C)OC(C)C3)C2=O)cc1 (stereo unspecified)

RESULT:
1. -0.8
2. 7.4
3. -14.1

Batch: inhibition for all items listed.
1. CCc1cccc(NC(=O)CCc2nc(-c3cccs3)no2)c1
2. Cn1c(OCc2cccnc2)nc2c1c(=O)n(Cc1ccccc1)c(=O)n2C
3. COc1cccc(C=NCCNC(=O)c2nonc2N)c1O
4. COc1ccc2[nH]cc(C(=O)CN(C)CCc3ccc(OC)c(OC)c3)c2c1
5. Cc1c(NC(=O)C(C)OC(=O)c2cc3c4ccccc4n(C)c3s2)c(=O)n(-c2ccccc2)n1C (stereo unspecified)
6. O=C(Nc1ncc(Br)s1)C1CCCN1S(=O)(=O)c1cccc2cccnc12 (stereo unspecified)
7. Cn1nnnc1SCC(=O)Nc1ccccc1-c1ccccc1

RESULT:
1: 11.3; 2: -11.2; 3: -4; 4: -15.4; 5: -1.3; 6: 0.6; 7: -8.7

Batch: inhibition for all items listed.
1. COc1cc(NC(=O)CN(c2cc(C)cc(C)c2)S(=O)(=O)c2c(C)noc2C)cc(OC)c1
2. Cc1cccc(N2C(=O)CC(N3CCN(C(=O)c4ccccc4)CC3)C2=O)c1 (stereo unspecified)
3. Cc1ccc(-c2nn(C)c(=O)c3ccccc23)cc1S(=O)(=O)NCCN1CCOCC1

RESULT:
2.3
19.1
5

* * *

Assay: inhibitors of poly I:C-induced TLR3 signaling, primary screen, cell-based, poly I:C stimulus, luciferase, 10K MLSCN set (AID 602277)
Settings: HEK293-TLR3 RL24 IRF3 luciferase reporter, at 10 µM, stronger effect = higher value
Active and inactive are the calls of the source.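 The calls were made as follows: active = inhibition of the reporter signal at or above 50%; inactive = inhibition below 50%.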
Consider the following compounds; for each one, report its inhibition.

QUERY: I am curious: what inhibition value has been reported for CCCOc1ccc(NC2=CC(=O)CC(C)(C)C2)cc1 ?
RESULT: -12.8% (inactive)

QUERY: Lookup CCc1cc(=O)oc2cc(OC(C)=O)cc(OC(C)=O)c12
RESULT: 14% (inactive)

QUERY: Lookup CN(Cc1ccccc1)C(=O)CNC(=O)Cn1cnc2ccccc2c1=O
RESULT: 10.1% (inactive)

Batch: inhibition for all items listed.
1. CS(=O)(=O)N(Cc1ccccc1)c1ccc(C(=O)N2CCOCC2)cc1
2. Cc1cccc(OCCNC(=O)c2ncn[nH]2)c1
3. O=C(NCC1CCCO1)c1ccccc1-c1nc(-c2ccc(Cl)cc2)no1 (stereo not drawn)
4. CCOC(=O)N1CCN(C(=O)CSCC(=O)Nc2nc(-c3ccc(OC)cc3)cs2)CC1
5. COc1cccc2cc(C(=O)N3CCN(c4ccc(C)cc4C)CC3)c(=O)oc12
6. COc1ccc(N2CCN(CCNC(=O)CCS(=O)(=O)c3cccc4nsnc34)CC2)cc1

RESULT:
1: 0.146% (inactive); 2: 32.3% (inactive); 3: -4.71% (inactive); 4: -24.6% (inactive); 5: 5.89% (inactive); 6: 15.8% (inactive)

Batch: inhibition for all items listed.
1. O=C(CCN1C(=O)COc2ccccc21)NCCCN1CCN(c2ccccc2F)CC1
2. C=C(C)Cn1c(N2CC(C)CC(C)C2)nc2c1c(=O)[nH]c(=O)n2C (stereo not drawn)
3. O=C(COC(=O)C12CC3CC(CC(C3)C1)C2)NCc1ccco1
4. CCOC(=O)c1ccc(NC(=O)CSCc2ccco2)cc1
5. CN(C)S(=O)(=O)c1cccc(C(=O)Nc2cccnc2)c1
6. Cc1nnc(SCC(=O)Nc2cc(C(F)(F)F)ccc2N2CCOCC2)o1
7. O=C(CSc1nccn1Cc1ccccc1)Nc1nccs1
8. CCN(CC)CC(C)CNC(=O)CC(C(=O)N1CCc2ccccc21)n1ccnc1 (stereo not drawn)

RESULT:
15% (inactive)
41.2% (inactive)
31.8% (inactive)
-14.9% (inactive)
10.8% (inactive)
32.5% (inactive)
-82.1% (inactive)
11% (inactive)

Batch: inhibition for all items listed.
1. COC(=O)c1c(O)ccc(Oc2ccccc2)c1C(=O)OC
2. CCOC(=O)N1CCN(C(=O)COc2ccc(S(=O)(=O)NC(C)C)cc2)CC1
3. CCCCNc1cc(C)oc(=O)c1C(C)=O
4. CNC(=O)c1nnn(Cc2ccccc2)c1NC(C)=O

RESULT:
1: 21.8% (inactive); 2: 24.1% (inactive); 3: 22.9% (inactive); 4: -3.44% (inactive)

Batch: inhibition for all items listed.
1. CCOC(=O)c1ccc2[nH]c(C)c(CN3CCN(C)CC3)c(=O)c2c1
2. c1ccc2ncc(-n3cnnn3)cc2c1

RESULT:
1: 21.9% (inactive); 2: 11.8% (inactive)

* * *

Consider the following compounds; for each one, report its cell count.
Assay: inhibitors of TNFa-induced NFkB p65 translocation, primary screen, imaging, HUVEC, MLSMR starter and 10KST1 sets (AID 438);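 further: compound added about 3h40 before a 20 min TNFalpha stimulation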
Details: HUVEC TNFa-induced p65 nuclear translocation; measured here: nuclei count (cytotoxicity indicator), at 2.08 µM
Numbers only.

Here's what some known entries look like.
QUERY: I am curious: what cell count value has been reported for Cn1nc(CC(=O)Nc2ccc(N3CCN(C(=O)OC(C)(C)C)CC3)cc2)c2ccccc2c1=O ?
RESULT: 639

QUERY: Lookup Cc1cccc(-c2nnc3n2N=C(c2ccc(Br)cc2)CS3)c1
RESULT: 769

QUERY: Lookup CC(C)C(NC(=O)c1ccccc1NC(=O)c1ccco1)C(=O)O (stereo not drawn)
RESULT: 368

Batch: cell count for all items listed.
1. N#Cc1c(N)n(CCOC(=O)c2ccc(Cl)cc2)c2nc3ccccc3nc12
2. O=C(CCC(=O)c1cccs1)NCc1ccccc1
3. CCOC(=O)c1[nH]c2cc3c(cc2c1NC(=O)CN1CC(C)CC(C)C1)OCO3 (stereo not drawn)
4. CC(C)N(C(=O)CSc1nnc(-c2cc3ccccc3cc2O)n1Cc1ccco1)C(C)C
5. O=C(CCc1nc2ccccc2[nH]1)Nc1ccc2c(c1)OCO2

RESULT:
1. 617
2. 462
3. 527
4. 836
5. 310

Batch: cell count for all items listed.
1. CN(Cc1ccccc1)c1nc2c(c(=O)[nH]c(=O)n2C)n1Cc1ccccc1Cl
2. CC1=C(C(=O)NC2CCC(C)CC2)C2(CCC(C)CC2)OC1=O (stereo not drawn)
3. Cc1ccc(N2C(=O)CC(Cn3nc(C)cc3C)C2=O)cc1 (stereo not drawn)
4. CCN(CCCNC(=O)CC1Oc2ccc(C)cc2NC1=O)Cc1ccccc1 (stereo not drawn)
5. CC1(C)Cc2c(C#N)c(N3CCOCC3)nc(Cc3ccccc3)c2CO1
6. Cc1cc(C)c2c(n1)nn1c(C3CC3)cc(C(F)(F)F)nc21
7. CCOC(=O)c1ccc(N2C(=O)CC(NC3CCN(C(=O)c4ccc(F)cc4)CC3)C2=O)cc1 (stereo not drawn)
8. Cc1nnc(SCC(=O)N2CC(=O)Nc3ccccc32)n1-c1ccccc1

RESULT:
[364, 640, 471, 548, 582, 631, 699, 502]

* * *

Experiment: DUSP6 inhibitors restoring Erk phosphorylation by chemical complementation, primary imaging in DUSP6-transfected HeLa (AID 609)
Conditions: HeLa MKP-3 transfected, phospho-Erk imaging KS statistic; measured here: nuclear c-Myc green intensity z-score; at 10 µM; cells stimulated with TPA for 15 min
readout name: z-score
Numbers only.

Here's what some known entries look like.
QUERY: I am curious: what z-score value has been reported for N#Cc1nc(COc2ccccc2F)oc1NCCCn1ccnc1 ?
RESULT: 1.53

QUERY: Lookup CCOC(=O)CSc1nnc(C)c(=O)[nH]1
RESULT: 0.692

Batch: z-score for all items listed.
1. CCOC(=O)c1[nH]c2ccc(C)cc2c1N=CN(CC)CC
2. Cc1cccc(-n2ncc3c(NCCN4CCOCC4)ncnc32)c1
3. O=C(C1CCCCC1)N1CCCn2c1nc1ccccc12
4. CCOC(=O)N1CCN(C2OC(=O)c3ccccc32)CC1 (configuration not stated)
5. COC(=O)c1c(-n2cnnn2)sc(C)c1C

RESULT:
1: 1.5; 2: 1.25; 3: 0.0435; 4: -0.533; 5: 1.91

Batch: z-score for all items listed.
1. CCCC(CCC(=O)Nc1ccc(C(=O)OC)cc1)C(=O)O (configuration not stated)
2. O=C(NCc1cccnc1)NC(C(F)(F)F)C(F)(F)F
3. CCSc1nc2sc3c(c2c2nnc(SCC(=O)NCc4ccco4)n12)CCCC3
4. CCC(CC)n1[nH]c(=O)cc1N

RESULT:
-1.82
-0.408
-1.17
-1.52

QUERY: I am curious: what z-score value has been reported for CCSc1nnc(NC(=O)C(C)(C(F)(F)F)C(F)(F)F)s1 ?
RESULT: 0.962

The measured values listed here are drawn from PubChem BioAssay.
